# EXPERIMENTAL SYSTEM: T1, human Galectin-3 protein (human, UniProt P17931 2-250, limits assumed)
# T1 construct: also called Gal3
# T1 sequence (P17931 2-250 limits assumed): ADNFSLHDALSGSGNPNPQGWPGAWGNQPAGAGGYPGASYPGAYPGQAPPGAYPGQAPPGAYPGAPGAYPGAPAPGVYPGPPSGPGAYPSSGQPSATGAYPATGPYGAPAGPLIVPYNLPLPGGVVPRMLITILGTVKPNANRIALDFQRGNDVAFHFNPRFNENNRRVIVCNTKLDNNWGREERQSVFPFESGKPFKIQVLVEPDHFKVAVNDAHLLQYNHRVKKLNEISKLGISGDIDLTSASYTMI
# TEST METHOD NOTES: ELISA-like competition: inhibition of soluble HRP-Lactose binding to immobilised Galectin-3
Ends that are not written are not given here. Gal = galactose
PARAMETER: EC50 (µM)
Lab book: enter the figure in µM, no units written.

Exercise: Name the reported EC50 value associated with the binder Gal-PAPT (also: exact galactose derivative not given here, Synthetic glycan-peptide conjugate; also called glycopeptide Gal-PAPT) [Gal-PAPT (galactose-modified glycopeptide)]
Solution: 14
